The reported numbers originate from patent US9796668B2.

- System: IFNγ-induced NO production in RAW264.7 macrophages
- Assay Details: Suppression of IFNγ-induced NO production (Griess reagent)
- Type: cell-based, mouse
- Condition Info: Mus musculus, RAW264.7; read-out: IC50 in the NO assay
- Method: FIGS. 1-16 and 20-24. Inhibition of NO Production. RAW264.7 macrophages were pre-treated with DMSO or drugs at various concentrations (μM) for 2 hours, then treated with IFNγ for 24 hours. NO concentration in media was determined using a Griess reagent system; cell viability was determined using the WST-1 reagent. Compounds of the present disclosure have been tested for inhibition of NO production. Experimental details are provided in Example 1. […]
pIC50: −log10 of the molar value.
Endpoint Name: pIC50

Molecule	Quantitative Readout
COc1cc(/C=C/C(=O)C(C)(C)C(=O)/C=C/[C@@]2(C)C=C(C#N)C(=O)C(C)(C)C2)ccc1O [Compound C0009]	7.00
CC1(C)C(=O)C(C#N)=C[C@]2(C)C3CC[C@]4(C)C(=O)CCC4C3CCC12 (some centres unmarked) [Compound D0018]	6.89
